Form field: pEC50 (one value per entry).
- Test system: Human immunodeficiency virus 1
- EXPERIMENT SUMMARY: Antiviral activity against wild type Human immunodeficiency virus 1
- Assay type: functional, organism-based
pEC50: −log10 of the molar value.

| STRUCTURE STRING | TGT | pEC50 |
| --- | --- | --- |
| CC(C)CN(C[C@@H](O)[C@H](Cc1ccccc1)NC(=O)[C@@H]1CN(c2cccc([N+](=O)[O-])c2)C(=O)O1)S(=O)(=O)c1ccc2ncsc2c1 | Human immunodeficiency virus 1 | 8.14 |
| CC(C)CN(C[C@@H](O)[C@H](Cc1ccccc1)NC(=O)[C@@H]1CN(c2cccc(N)c2)C(=O)O1)S(=O)(=O)c1ccc2c(c1)OCO2 | Human immunodeficiency virus 1 | 8.15 |
| CC(=O)Nc1cccc(N2C[C@@H](C(=O)N[C@@H](Cc3ccccc3)[C@H](O)CN(CC(C)C)S(=O)(=O)c3ccc4c(c3)OCO4)OC2=O)c1 | Human immunodeficiency virus 1 | 7.96 |
| CC(C)CN(C[C@@H](O)[C@H](Cc1ccccc1)NC(=O)[C@@H]1CN(c2cccc(C(F)(F)F)c2)C(=O)O1)S(=O)(=O)c1ccc2ncsc2c1 | Human immunodeficiency virus 1 | 7.87 |
| CC(=O)Nc1cccc(N2C[C@@H](C(=O)N[C@@H](Cc3ccccc3)[C@H](O)CN(CC(C)C)S(=O)(=O)c3ccc4ncsc4c3)OC2=O)c1 | Human immunodeficiency virus 1 | 8.24 |
| CC(C)CN(C[C@@H](O)[C@H](Cc1ccccc1)NC(=O)O[C@H]1CO[C@H]2OCC[C@H]21)S(=O)(=O)c1ccc(N)cc1 | Human immunodeficiency virus 1 | 9.40 |
| COC(=O)Nc1cccc(N2C[C@@H](C(=O)N[C@@H](Cc3ccccc3)[C@H](O)CN(CC(C)C)S(=O)(=O)c3ccc4ncsc4c3)OC2=O)c1 | Human immunodeficiency virus 1 | 8.92 |
| COc1ccc(S(=O)(=O)N(CC(C)C)C[C@@H](O)[C@H](Cc2ccccc2)NC(=O)[C@@H]2CN(c3cccc(N)c3)C(=O)O2)cc1 | Human immunodeficiency virus 1 | 8.40 |
| CC(C)CN(C[C@@H](O)[C@H](Cc1ccccc1)NC(=O)[C@@H]1CN(c2ccccc2)C(=O)O1)S(=O)(=O)c1ccc2ncsc2c1 | Human immunodeficiency virus 1 | 7.67 |

----------
- Test system: Human immunodeficiency virus 1
- EXPERIMENT SUMMARY: Antiviral activity against multidrug resistant Human immunodeficiency virus 1 MDRC4
- Type: functional, organism-based

| STRUCTURE STRING | EC50 [nM] |
| --- | --- |
| CC(C)CN(C[C@@H](O)[C@H](Cc1ccccc1)NC(=O)[C@@H]1CN(c2cccc(N)c2)C(=O)O1)S(=O)(=O)c1ccc2c(c1)OCO2 | 35.4 |
| CC(=O)c1cccc(N2C[C@@H](C(=O)N[C@@H](Cc3ccccc3)[C@H](O)CN(CC(C)C)S(=O)(=O)c3ccc4ncsc4c3)OC2=O)c1 | 34.7 |
| CC(C)CN(C[C@@H](O)[C@H](Cc1ccccc1)NC(=O)[C@@H]1CN(c2cccc(S(C)(=O)=O)c2)C(=O)O1)S(=O)(=O)c1ccc2ncsc2c1 | 10.5 |
